system: LOX IMVI melanoma; experiment: NCI-60 one-dose screen, 48 h (100 = growth as untreated, 0 = no growth, -100 = all killed); settings: 10 µM unless noted
Compounds without any hit were thinned out: in the full panel of roughly 83,000, 20% have a hit.
Cut-off 20% on growth, inclusive. At or above means Satisfied; below means Not satisfied.

Kindly determine if growth recorded for CC(C)Cc1cc(CNC(=O)C2[C@H]3CN(C(=O)c4ccccc4)C[C@@H]23)nn1-c1ccccc1 (some centres undefined) is above or exactly 20%. Satisfied

Kindly determine if growth recorded for CC1CCCN(CCCCCOc2ccc3oc4ccc(Cl)cc4c(=O)c3c2)C1 (centres undefined) is above or exactly 20%. Not satisfied

Kindly determine if growth recorded for COc1ccc(-n2cc(-c3ccc(Cl)c(Cl)c3)[nH]c2=O)cc1OC is above or exactly 20%. Satisfied

Kindly determine if growth recorded for COc1ccc(-c2nc(C#N)c(NCC(c3ccc(Cl)cc3)N3CCCCC3)o2)cc1 (centres undefined) is above or exactly 20%. Satisfied

Kindly determine if growth recorded for COc1cc2c(cc1OCCCOc1cc3c(cc1OC)C(=O)N1CC(F)(F)C[C@H]1C=N3)N=C[C@@H]1CC(F)(F)CN1C2=O is above or exactly 20%. Not satisfied

Kindly determine if growth recorded for CC[C@]12C=CCN3CC[C@@]4(c5cc(NC(=O)CCC(=O)O[C@H]6CC[C@H]7[C@@H]8CC[C@H]9CC(=O)CC[C@]9(C)[C@H]8CC[C@]67C)c(OC)cc5N(C)[C@H]4[C@@](O)(C(=O)OC)[C@@H]1OC(C)=O)[C@@H]32 is above or exactly 20%. Satisfied

Kindly determine if growth recorded for COC1=CC=CC2(OC)C3(O)CCCc4cccc(c43)N3C(=O)COC132 (centres undefined) is above or exactly 20%. Satisfied

Kindly determine if growth recorded for O=C1C(Cl)=C(Nc2ccc3c(c2NC2=C(Cl)C(=O)c4ccccc4C2=O)C(=O)c2ccccc2C3=O)C(=O)c2ccccc21 is above or exactly 20%. Not satisfied

Kindly determine if growth recorded for COc1cc(C2CC(c3ccc(Nc4nc(NCCO)nc(NCCO)n4)cc3)=NN2c2cc(Cl)cc(Cl)c2)cc(OC)c1OC (centres undefined) is above or exactly 20%. Not satisfied

###

tested on: HOP-92 NSCLC; assay: NCI-60 one-dose screen, 48 h; conditions: 10 µM unless noted
The panel holds about 83,000 compounds, 20% with a hit somewhere; the sample as a whole holds those more often. The source made the active and inactive calls. The calls were made as follows: active = growth percent below 10; inactive = the rest.
Field 'call' accepts Y (active), N (inactive)

Status in this test for COc1ccc(-c2cs/c(=N\N=C\c3ccc(O)cc3O)n2/N=C/c2ccc(O)cc2O)cc1 ? Y

Status in this test for Nc1c(C(=O)Nc2ccccn2)sc2nc3c(cc12)CCCCCC3 ? N

Status in this test for CC1(C)CC[C@]2(c3nnc(-c4ccncc4)o3)CC[C@]3(C)C(=CC[C@@H]4[C@@]5(C)CCC(=O)C(C)(C)[C@@H]5CC[C@]43C)[C@@H]2C1 ? N

Status in this test for COc1cc2c(Nc3ccc(NC(=O)Nc4ccc(Cl)c(C(F)(F)F)c4)c(Cl)c3)ncnc2cc1OCCCN1CCN(C)CC1 ? N

Status in this test for COc1ccc(C(=O)c2cc(OC)c(C)c(OC)c2)cc1OC(=O)CCl ? N

Status in this test for C=C1C(=O)O[C@H]2[C@H]1CC/C(COC(=O)c1cc3ccccc3o1)=C\CC[C@@]1(C)O[C@@H]21 ? Y

Status in this test for C/C(=N/Nc1nc2ccccc2n1C)c1ccccn1 ? N

Status in this test for CN(CCC#N)C(=O)Nc1ccccc1 ? N

Status in this test for S=C(Nc1ccc(Cl)cc1)c1ccccn1 ? N
